Origin of the recorded values: the supplement of paper PMC10307832

Test system: NCI-H2087
Protocol: relative viability (nuclei count vs DMSO), 5 days (fraction); higher = more cells survive
Study conditions: first compound 0.03162 µM
Observable: relative viability

Molecule	Study target	Observed result
Cc1cn(-c2cc(NC(=O)c3ccc(C)c(Nc4nccc(-c5cccnc5)n4)c3)cc(C(F)(F)F)c2)cn1 [Nilotinib] + CC(=O)c1c(C)c2cnc(Nc3ccc(N4CCNCC4)cn3)nc2n(C2CCCC2)c1=O [Palbociclib] (partner 0.5 µM)	NCI-H2087	0.187
Cc1cn(-c2cc(NC(=O)c3ccc(C)c(Nc4nccc(-c5cccnc5)n4)c3)cc(C(F)(F)F)c2)cn1 [Nilotinib] + CS(=O)(=O)CCNCc1ccc(-c2ccc3ncnc(Nc4ccc(OCc5cccc(F)c5)c(Cl)c4)c3c2)o1 [Lapatinib] (partner 2 µM)	NCI-H2087	0.686
Cc1cn(-c2cc(NC(=O)c3ccc(C)c(Nc4nccc(-c5cccnc5)n4)c3)cc(C(F)(F)F)c2)cn1 [Nilotinib] + Nc1nc2[nH]cc(CCc3ccc(C(=O)N[C@@H](CCC(=O)O)C(=O)O)cc3)c2c(=O)[nH]1 [Pemetrexed] (partner 0.2 µM)	NCI-H2087	0.614
Cc1cn(-c2cc(NC(=O)c3ccc(C)c(Nc4nccc(-c5cccnc5)n4)c3)cc(C(F)(F)F)c2)cn1 [Nilotinib] + O=C(c1cc(Cc2n[nH]c(=O)c3ccccc23)ccc1F)N1CCN(C(=O)C2CC2)CC1 [Olaparib] (partner 8 µM)	NCI-H2087	0.552
Cc1cn(-c2cc(NC(=O)c3ccc(C)c(Nc4nccc(-c5cccnc5)n4)c3)cc(C(F)(F)F)c2)cn1 [Nilotinib] + CC(C)C[C@H](NC(=O)[C@H](Cc1ccccc1)NC(=O)c1cnccn1)B(O)O [Bortezomib] (partner 0.002 µM)	NCI-H2087	0.68
Cc1cn(-c2cc(NC(=O)c3ccc(C)c(Nc4nccc(-c5cccnc5)n4)c3)cc(C(F)(F)F)c2)cn1 [Nilotinib] + CS(=O)(=O)N1CCN(Cc2cc3nc(-c4cccc5[nH]ncc45)nc(N4CCOCC4)c3s2)CC1 [Pictilisib] (partner 1 µM)	NCI-H2087	0.606
